assay: cytotoxicity in HPDE-C7 cells, cell-based, fluorescence, HTS (AID 430); settings: HPDE-C7 pancreatic duct cells viability, at 10 µM, active compounds read high;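 note: cells exposed to compound for 48 hours before viability readout; 0% = vehicle and 100% = reference cytotoxic drug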
About 1,100 (1.7%) of roughly 63,000 compounds were called active. The entries come from a sample that favours actives as a whole. Potency and affinity values are given separately.
Recorded endpoint: cytotoxicity (%)

compound=O=C(COc1cccc(NC(=O)c2ccco2)c1)c1ccc(F)cc1 recorded_endpoint=cytotoxicity quantitative_result=-13.8
compound=CCOC(=O)c1ccc(NC(=O)Cn2nnc3ccccc32)cc1 recorded_endpoint=cytotoxicity quantitative_result=3.7
compound=Cc1cc(C(=O)NCc2ccccc2)c(=O)[nH]c1C recorded_endpoint=cytotoxicity quantitative_result=-2.3
compound="COc1cc2c(cc1OC)C1Cc3ccc(OC)c(OC)c3CN1CC2 (stereo not drawn)" recorded_endpoint=cytotoxicity quantitative_result=-10.2
compound=CCCCS(=O)(=O)C(=C1Nc2ccccc2N1)S(=O)(=O)CCCC recorded_endpoint=cytotoxicity quantitative_result=-0.6
compound="O=C1c2oc3ccc(Cl)cc3c(=O)c2C(c2cccc(Br)c2)N1CCO (stereo not drawn)" recorded_endpoint=cytotoxicity quantitative_result=0.8
compound="CSCCC(NC(=O)c1cc(CC(C)C)oc1C)C(=O)O (stereo not drawn)" recorded_endpoint=cytotoxicity quantitative_result=-17.8
compound=COc1ccc(-c2n[nH]c(C)c2-c2cnn(-c3ccccc3)c2)c(O)c1 recorded_endpoint=cytotoxicity quantitative_result=36.4
compound=Cc1ccc2cc3cc(C(=O)N4CCN(C(=O)c5ccco5)CC4)sc3nc2c1 recorded_endpoint=cytotoxicity quantitative_result=-0.9
compound=CC(C)CNc1nc(Oc2ccc(=O)n(C)n2)nc(N2CCOCC2)n1 recorded_endpoint=cytotoxicity quantitative_result=-7.6
compound=Cc1ccc(S(=O)(=O)N2CCN(C(=O)CSc3nc4ccccc4o3)C2)cc1 recorded_endpoint=cytotoxicity quantitative_result=-14.7
compound="COc1cc2c(cc1OC)C(c1cc(OC)c(OC)c(OC)c1)NCC2 (stereo not drawn)" recorded_endpoint=cytotoxicity quantitative_result=4.6
compound=CCCCN(Cc1ccccc1)c1ncnc2nc[nH]c12 recorded_endpoint=cytotoxicity quantitative_result=-1

* * *

assay: cytotoxicity in HPDE-C7 cells, cell-based, fluorescence, HTS (AID 430); details: HPDE-C7 pancreatic duct cells viability, at 10 µM, active compounds read high;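 note: cells exposed to compound for 48 hours before viability readout; 0% = vehicle and 100% = reference cytotoxic drug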
Among all 63,000 compounds or so, about 1,100 (1.7%) were called active. Only a selection was taken, and actives are over-represented in it overall. Measured potencies and affinities stand elsewhere.
Here, each record is paired with measured cytotoxicity data.
Recorded endpoint: cytotoxicity (%)

molecule=CN1CCN(C2=Nc3ccccc3Oc3ccc(Cl)cc32)CC1 quantitative_result=10.6
molecule=COc1ccc(Cl)cc1S(=O)(=O)N1CCN(C(=O)c2cc(OC)c(OC)c(OC)c2)CC1 quantitative_result=-17
molecule=CCN1CCN(CCNC(=O)c2ccc(CS(=O)(=O)c3ccccc3C)o2)CC1 quantitative_result=-0.5
molecule=CCCc1n[nH]c2c1C(=O)CC(C)(C)C2 quantitative_result=1.7
molecule=Cc1ccc(OCc2nc(-c3ccccn3)no2)c(Br)c1 quantitative_result=12.5
molecule=CCSc1nc(N)c2c3c(sc2n1)CN(C)CC3 quantitative_result=-22
molecule="C=CCN1C(=O)C(CC(=O)O)SC1=Nc1c(C)n(C)n(-c2ccccc2)c1=O (stereo not given)" quantitative_result=-3.1
molecule=Cc1cccc(N2CCN(C(=O)c3ccc(Cl)c(S(=O)(=O)NCc4ccco4)c3)CC2)c1C quantitative_result=65.8
molecule=Clc1ccc(OCc2nc(-c3ccccn3)no2)c(Br)c1 quantitative_result=4.3
molecule="OC1CCCN(Cc2ccc3c(c2)Cc2ccccc2-3)C1 (stereo not given)" quantitative_result=-0.6
molecule=CCCCCn1c(=NC(C)=O)c(C#N)cc2c(=O)n3ccccc3nc21 quantitative_result=8.8
molecule="CCC(C)(NC(=O)c1ccc(=O)[nH]c1)C(=O)NC1CCCC1 (stereo not given)" quantitative_result=-7
molecule=COc1ccccc1-c1cc(C(=O)NC(C)C)no1 quantitative_result=-2.5
molecule=O=C(NCC1(N2CCOCC2)CCCCC1)c1ccc(Cl)c(S(=O)(=O)NCc2ccco2)c1 quantitative_result=-1.6
molecule=COc1ccc(Br)cc1S(=O)(=O)N(CC(=O)N1CCOCC1)c1ccccc1 quantitative_result=-5.3
